Tested on: Trypanosoma cruzi
Experiment: Antitrypanosomal activity against Trypanosoma cruzi Y trypomastigote infected in monkey LLCMK2 cells assessed as inhibition of cell invasion by trypanosoma by measuring infection index at 250 uM pretreated with cells for 30 mins followed by trypomastigote infection measured after 18 hrs by panoptic dye-based optical microscopic analysis (reference value: 68)
Format: functional
test.readout: Activity_index

>>> result("CO[C@@H]1O[C@H](CO)[C@H](O)[C@H](OCc2cn(-c3ccc(S(=O)(=O)Nc4cc(C)on4)cc3)nn2)[C@H]1O")
20
>>> result("CO[C@@H]1O[C@H](CO)[C@H](O)[C@H](OCc2cn(-c3ccc(S(=O)(=O)Nc4nc(C)cc(C)n4)cc3)nn2)[C@H]1O")
"28 - 44"
>>> result("CO[C@@H]1O[C@H](CO)[C@H](O)[C@H](OCc2cn(-c3ccc(S(=O)(=O)Nc4nccc(C)n4)cc3)nn2)[C@H]1O")
"28 - 44"
>>> result("COc1cc(NS(=O)(=O)c2ccc(-n3cc(CO[C@H]4[C@@H](O)[C@@H](CO)O[C@@H](OC)[C@@H]4O)nn3)cc2)nc(OC)n1")
20
>>> result("CO[C@@H]1O[C@H](CO)[C@H](O)[C@H](OCc2cn(-c3ccc(S(=O)(=O)Nc4ccccn4)cc3)nn2)[C@H]1O")
"28 - 44"
>>> result("CO[C@@H]1O[C@H](CO)[C@H](O)[C@H](OCc2cn(-c3ccc(S(=O)(=O)NC(C)=O)cc3)nn2)[C@H]1O")
"28 - 44"
>>> result("CO[C@@H]1O[C@H](CO)[C@H](O)[C@H](OCc2cn(-c3ccc(S(N)(=O)=O)cc3)nn2)[C@H]1O")
"28 - 44"

###

Biological target: Galectin-3 (Homo sapiens, UniProt P17931)
Sequence (P17931 whole entry): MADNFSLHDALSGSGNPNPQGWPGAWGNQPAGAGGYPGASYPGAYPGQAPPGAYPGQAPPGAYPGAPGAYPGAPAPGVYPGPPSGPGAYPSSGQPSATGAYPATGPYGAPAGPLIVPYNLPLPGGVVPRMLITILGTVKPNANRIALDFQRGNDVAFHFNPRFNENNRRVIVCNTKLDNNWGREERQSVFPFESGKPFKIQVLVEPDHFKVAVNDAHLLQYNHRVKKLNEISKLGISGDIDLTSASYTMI
Test: Binding affinity to recombinant human galectin-3 expressed in Escherichia coli BL21 after 3 hrs
test.readout: Activity

>>> result("CO[C@@H]1O[C@H](CO)[C@H](O)[C@H](OCc2cn(-c3ccc(S(=O)(=O)NC(C)=O)cc3)nn2)[C@H]1O")
"Dose-dependent effect"
>>> result("CO[C@@H]1O[C@H](CO)[C@H](O)[C@H](OCc2cn(-c3ccc(S(=O)(=O)Nc4nc(C)cc(C)n4)cc3)nn2)[C@H]1O")
"Dose-dependent effect"
>>> result("COc1cc(NS(=O)(=O)c2ccc(-n3cc(CO[C@H]4[C@@H](O)[C@@H](CO)O[C@@H](OC)[C@@H]4O)nn3)cc2)nc(OC)n1")
"Dose-dependent effect"
>>> result("CO[C@@H]1O[C@H](CO)[C@H](O)[C@H](OCc2cn(-c3ccc(S(N)(=O)=O)cc3)nn2)[C@H]1O")
"Dose-dependent effect"
>>> result("CO[C@@H]1O[C@H](CO)[C@H](O)[C@H](OCc2cn(-c3ccc(S(=O)(=O)Nc4cc(C)on4)cc3)nn2)[C@H]1O")
"Dose-dependent effect"

###

Biological target: Trans-sialidase (Trypanosoma cruzi, UniProt Q26964)
Sequence (Q26964 whole entry): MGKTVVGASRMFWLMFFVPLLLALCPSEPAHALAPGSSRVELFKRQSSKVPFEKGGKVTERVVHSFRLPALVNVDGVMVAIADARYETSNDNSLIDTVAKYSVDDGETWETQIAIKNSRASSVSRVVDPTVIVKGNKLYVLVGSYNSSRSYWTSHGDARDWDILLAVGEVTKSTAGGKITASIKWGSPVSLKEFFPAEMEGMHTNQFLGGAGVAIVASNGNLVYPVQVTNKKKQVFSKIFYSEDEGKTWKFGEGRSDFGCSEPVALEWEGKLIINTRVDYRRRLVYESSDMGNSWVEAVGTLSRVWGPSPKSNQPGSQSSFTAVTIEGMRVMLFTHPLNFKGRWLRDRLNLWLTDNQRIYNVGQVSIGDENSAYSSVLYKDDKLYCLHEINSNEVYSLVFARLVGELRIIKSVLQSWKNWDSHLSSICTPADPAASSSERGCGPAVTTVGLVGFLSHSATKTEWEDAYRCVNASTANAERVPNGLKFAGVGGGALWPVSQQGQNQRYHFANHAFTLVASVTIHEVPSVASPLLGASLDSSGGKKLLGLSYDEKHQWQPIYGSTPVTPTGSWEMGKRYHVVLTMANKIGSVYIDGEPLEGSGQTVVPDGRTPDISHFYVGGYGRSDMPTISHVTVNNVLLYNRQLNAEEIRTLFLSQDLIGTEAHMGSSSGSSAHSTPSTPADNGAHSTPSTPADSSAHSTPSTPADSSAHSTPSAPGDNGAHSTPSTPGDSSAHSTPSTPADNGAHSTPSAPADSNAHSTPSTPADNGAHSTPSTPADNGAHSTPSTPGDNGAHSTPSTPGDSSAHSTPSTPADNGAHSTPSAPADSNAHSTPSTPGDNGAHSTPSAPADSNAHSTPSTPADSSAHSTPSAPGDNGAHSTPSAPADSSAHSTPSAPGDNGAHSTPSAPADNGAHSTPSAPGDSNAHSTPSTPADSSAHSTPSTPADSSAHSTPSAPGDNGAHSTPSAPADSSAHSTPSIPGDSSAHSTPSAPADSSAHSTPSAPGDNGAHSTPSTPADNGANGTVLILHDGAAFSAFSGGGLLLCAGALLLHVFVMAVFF
test.readout: IC50 (nM)

>>> result("Cc1ccc(S(=O)(=O)N2c3ccccc3C(=O)/C(=C/c3ccc(O)c(O)c3)C2c2ccc(O)c(O)c2)cc1 (stereo unspecified)")
600

###

Measured pEC50 by item
Target: Galectin-3 (Homo sapiens, UniProt P17931)
Assay: Binding affinity to recombinant human galectin-3 expressed in Escherichia coli BL21 after 3 hrs
pEC50: −log10 of the molar value.
test.readout: pEC50

>>> result("CO[C@@H]1O[C@H](CO)[C@H](O)[C@H](OCc2cn(-c3ccc(S(=O)(=O)Nc4cc(C)on4)cc3)nn2)[C@H]1O")
4.76
>>> result("CO[C@@H]1O[C@H](CO)[C@H](O)[C@H](OCc2cn(-c3ccc(S(=O)(=O)NC(C)=O)cc3)nn2)[C@H]1O")
3.69
>>> result("CO[C@@H]1O[C@H](CO)[C@H](O)[C@H](OCc2cn(-c3ccc(S(=O)(=O)Nc4nc(C)cc(C)n4)cc3)nn2)[C@H]1O")
4.17
>>> result("CO[C@@H]1O[C@H](CO)[C@H](O)[C@H](OCc2cn(-c3ccc(S(N)(=O)=O)cc3)nn2)[C@H]1O")
4.39
>>> result("COc1cc(NS(=O)(=O)c2ccc(-n3cc(CO[C@H]4[C@@H](O)[C@@H](CO)O[C@@H](OC)[C@@H]4O)nn3)cc2)nc(OC)n1")
4.74
